Test system: L02
assay.protocol: Cytotoxicity against human LO2 cells after 72 hrs by MTT assay
Assay type: functional, cell-based
study.conditions: L02, 72 h
quantity.measured: IC50

Per the record, `COc1ccc(-c2nc(NCCCOc3ccc(/C=C/C(=O)NO)cc3OC)cc3c2[nH]c2ccccc23)cc1` has IC50 of > 25 µM

====

Parameter 'readout' = IC50; parameter 'system' = Histone deacetylase 1 (Homo sapiens, UniProt Q13547).
Sequence (Q13547 whole entry): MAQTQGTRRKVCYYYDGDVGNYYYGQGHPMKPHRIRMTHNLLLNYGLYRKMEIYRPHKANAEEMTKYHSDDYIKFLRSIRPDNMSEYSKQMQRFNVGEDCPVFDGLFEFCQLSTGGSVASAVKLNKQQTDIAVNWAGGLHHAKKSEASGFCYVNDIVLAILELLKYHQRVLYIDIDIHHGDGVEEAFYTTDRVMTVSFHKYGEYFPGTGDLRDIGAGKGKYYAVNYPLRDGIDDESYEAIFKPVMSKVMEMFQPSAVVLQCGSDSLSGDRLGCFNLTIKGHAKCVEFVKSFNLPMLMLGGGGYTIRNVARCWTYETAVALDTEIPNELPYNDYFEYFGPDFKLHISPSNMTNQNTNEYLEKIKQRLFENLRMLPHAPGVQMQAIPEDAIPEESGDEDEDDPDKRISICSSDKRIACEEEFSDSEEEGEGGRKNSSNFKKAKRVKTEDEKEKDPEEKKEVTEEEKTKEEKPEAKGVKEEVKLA
Give the number; nM is assumed, so skip it.

# IC50 (compound: `COc1ccc(-c2nc(NCCOc3ccc(/C=C/C(=O)NO)cc3)cc3c2[nH]c2ccccc23)cc1` ) is 75

`COc1ccc(-c2nc(NCCCOc3ccc(/C=C/C(=O)NO)cc3OC)cc3c2[nH]c2ccccc23)cc1` has a reported IC50 of 27

Per the records, this compound ( `COc1ccc(-c2nc(NCCCCOc3ccc(/C=C/C(=O)NO)cc3OC)cc3c2[nH]c2ccccc23)cc1` ) has IC50 equal to 61

Data origin, for the record: ChEMBL document CHEMBL4376807
